System: UO-31
Assay: NCI tumour cell line growth inhibition, 48 h
The source made the active and inactive calls. No stated cut-off is given here; in the data, active = GI50 up to about 1.1 µM and inactive = higher.
Output constraint: value belongs to active, inactive

Just curious, what result did `O=C[C@@H](CO)O[C@H](C=O)c1c[nH]c(=O)[nH]c1=O` get here?
inactive

Just curious, what result did C=C1C(=O)O[C@H]2C[C@@]3(COC(C)=O)C=COC=C(COC(=O)C(C)C)C3CC12 (stereo partly specified) get here?
inactive

====

GI50 values, listed per item
Tested on: NCI-H522
Assay: NCI tumour cell line growth inhibition, 48 h
Activity calls are given as the source filed them. Cut-off read from the data, not from the text of the source: active = GI50 up to about 1.1 µM and inactive = higher.

molecule	GI50
O=C(O)Cc1cccc2c1OC(c1ccccc1)C(Cl)(C(=O)c1ccccc1)C2=O (stereo not given)	14.2 µM (inactive)

Please give measured GI50 of the following entry: CC(=O)OC(Cc1c(O)c2c(C)cccc2oc1=O)C(C)(C)O (stereo not given)
> 100 µM (inactive)

Please give measured GI50 of the following entry: C=C1CCC2CC1[C@@H](C(=O)c1c[nH]c3ccccc13)NC2(C)C (stereo not given in full)
> 37.5 µM (inactive)

Please give measured GI50 of the following entry: O=[N+]([O-])c1ccc(C(O)(C#CCN2CCCC2)c2ccccc2)cc1 (stereo not given)
22.4 µM (inactive)

Please give measured GI50 of the following entry: `CC(C)CNC(=O)CCc1cccc2c1oc1c(CCN)cccc12`
13.2 µM (inactive)

Where do these numbers come from? They come from ChEMBL document CHEMBL1201862.
